All values here come from the RNAGym collection of RNA variant scans (doi:10.1002/anie.201605470).

B1: Osa-1-4 twister ribozyme (parent)
chain: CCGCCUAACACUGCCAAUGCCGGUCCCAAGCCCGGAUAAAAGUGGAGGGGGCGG

- Variants of: B1
- assay-info: self-cleavage, relative activity (ratio to wild type); higher = more cleavage; co-transcriptional
Reported self-cleavage values for a set of variants
Lab note: write the figure by itself, no unit.

# count of solved cases: 5
INSERT INTO results (variant_spec, data_value) VALUES
  ('G51U U18G', 0.35),
  ('G48A G54C', 0.15),
  ('G54A U24A', 0.13),
  ('A17G C33U', 0.19),
  ('G35U U37G', 0.89);

Here is the next item to consider.
Returns the measured self-cleavage for the input variant. Input: C11G C20G
0.04
